Tested on: HCT-15
endpointLabel: GI50

[
  {
    "compound": "CN1CCN(CN2C(=O)C3C4C=CC(C3C2=O)C2C3C(=O)N(CN5CCN(C)CC5)C(=O)C3C42)CC1 (stereo not given)",
    "GI50": "14.6 µM"
  },
  {
    "compound": "C#CC1(O)CCC2C3CCc4cc(Oc5nc(F)nc(-c6c7ccccc7c7n6CCS7)n5)ccc4C3CC[C@@]21C (stereo not given in full)",
    "GI50": "15.1 µM"
  },
  {
    "compound": "CC1(C)CC(/C=C2/OC(=O)c3ccccc32)=C(C(N)=O)C(=O)O1",
    "GI50": "> 100 µM"
  }
]

Inquiry: Lab request: please report GI50 under test system HCT-15 for CC1=C/C(=N\O)C(C(O)(C(F)(F)F)C(F)(F)F)C(C)(C)C1 (stereo not given)
Reply text: > 10 µM

Inquiry: Lab request: please report GI50 under test system HCT-15 for O=C(NN=C1CCCCC1)NN=C1CCCCC1
Reply text: > 100 µM

Inquiry: Lab request: please report GI50 under test system HCT-15 for COC1OC(CO)C(O)C(NC(=O)N(C)N=O)C1O (stereo not given)
Reply text: > 100 µM

Inquiry: Lab request: please report GI50 under test system HCT-15 for C=C1OC2OC(C)C(NC(=O)OCC(Cl)(Cl)Cl)C(OC(C)=O)C2O1 (stereo not given)
Reply text: > 100 µM

Inquiry: Lab request: please report GI50 under test system HCT-15 for Nc1cc(N2CCCC2)nc(=O)n1-c1ccccc1
Reply text: > 100 µM

Inquiry: Lab request: please report GI50 under test system HCT-15 for CCCc1ccc(NCc2cc(OC)c(OC)c(OC)c2)cc1
Reply text: 17.7 µM

Inquiry: Lab request: please report GI50 under test system HCT-15 for CCOC(=O)[C@@H]1ON2O[C@H](OC3CCCCC3c3ccccc3)C[C@H]3OC(=O)[C@@H]1C32 (stereo not given in full)
Reply text: > 100 µM

* * *

Listed below: GI50 values for each entry.
Tested on: HOP-92
protocol: NCI tumour cell line growth inhibition, 48 h
Activity calls are given as the source filed them. Cut-off read from the data, not from the text of the source: active = GI50 up to about 1.1 µM and inactive = higher.

Worked examples, 3 compounds total:
[
  {
    "compound": "C[C@H](c1ccccc1)N1C(=O)[C@@H](O)[C@H]1[C@H](CO)OCc1ccccc1",
    "GI50": "96.4 µM (inactive)"
  },
  {
    "compound": "CCCC(O)C(NC(=O)CCl)C(=O)O (stereo unspecified)",
    "GI50": "> 100 µM (inactive)"
  },
  {
    "compound": "CCc1ccccc1N1C(=O)C(=O)C(c2nc3ccccc3s2)C(=O)C1=O",
    "GI50": "> 100 µM (inactive)"
  }
]

Inquiry: // returns reported GI50 for input CN1CCN(CC(=O)Nc2cccc3ccccc23)CC1
Reply text: > 100 µM (inactive)

Inquiry: // returns reported GI50 for input c1cc(CSP234N5CCN2CCN3CCN4CC5)ccc1CSP123N4CCN1CCN2CCN3CC4
Reply text: 92.3 µM (inactive)

Inquiry: // returns reported GI50 for input Nc1cc(N2CCCC2)nc(=O)n1-c1ccccc1
Reply text: > 100 µM (inactive)

Inquiry: // returns reported GI50 for input C=C1OC2OC(C)C(NC(=O)OCC(Cl)(Cl)Cl)C(OC(C)=O)C2O1 (stereo unspecified)
Reply text: > 100 µM (inactive)

Inquiry: // returns reported GI50 for input CC(=O)OCC1OC(n2c(C#N)cc(=O)[nH]c2=O)CC1OC(C)=O (stereo unspecified)
Reply text: > 100 µM (inactive)

* * *

Listed below: GI50 values for each entry.
Tested on: HT-29
protocol: NCI tumour cell line growth inhibition, 48 h
Activity calls are given as the source filed them. Rule as the data show it: active = GI50 up to about 1.1 µM and inactive = higher.

Worked examples, 4 molecules total:
[
  {
    "molecule": "O=Cc1ccc(-c2cccc([N+](=O)[O-])c2)s1",
    "experimentalSystem": "HT-29",
    "recordedMeasurement": "> 100 µM (inactive)"
  },
  {
    "molecule": "CC(C)(C)C1CCC2c3c([nH]c4ccccc34)C3C(=O)N(c4cc(Br)cc(Br)c4)C(=O)C3C2C1 (stereo not given)",
    "experimentalSystem": "HT-29",
    "recordedMeasurement": "9.89 µM (inactive)"
  },
  {
    "molecule": "CCc1nnc(S)n1/N=C\\c1ccc(-c2ccccc2Cl)o1",
    "experimentalSystem": "HT-29",
    "recordedMeasurement": "33.4 µM (inactive)"
  },
  {
    "molecule": "Cc1cc(S(=O)(=O)Nc2nc3ccccc3nc2-c2ccc(Cl)cc2)c(S)cc1Cl",
    "experimentalSystem": "HT-29",
    "recordedMeasurement": "17.5 µM (inactive)"
  }
]

Okay, now this molecule:
Inquiry: // returns reported GI50 for input COc1cc(C2SCC(=O)N2c2cc(Cl)c(Cl)cc2Cl)cc(OC)c1OC (stereo not given)
Reply text: 76.7 µM (inactive)

* * *

System: UACC-62
protocol: NCI tumour cell line growth inhibition, 48 h
Active and inactive are the calls of the source. No stated cut-off is given here; in the data, active = GI50 up to about 1.1 µM and inactive = higher.
endpointLabel: GI50

Worked examples, 5 compounds total:
[
  {
    "compound": "CCCCCC(O)C1C(=O)OC(C)C(O)/C=C/C=C/C=C/C=C\\C=C(\\C)C(O)CC(O)CC(O)CC(O)CC(O)CC(O)CC1O (stereo unspecified)",
    "recordedMeasurement": "> 50 µM (inactive)"
  },
  {
    "compound": "C/C=C/C(=O)Oc1cccc2cccnc12",
    "recordedMeasurement": "6.98 µM (inactive)"
  },
  {
    "compound": "CN(C)CCNc1ccc(NCCN(C)C)c2c1C(=O)c1ncsc1C2=O",
    "recordedMeasurement": "11.4 µM (inactive)"
  },
  {
    "compound": "Cc1ccc(SC[C@@]2(C(F)F)NC(=O)NC2=O)cc1",
    "recordedMeasurement": "> 100 µM (inactive)"
  },
  {
    "compound": "CCCCOCc1cc(CN2CCN(C)CC2)c(O)c2ncccc12",
    "recordedMeasurement": "13.9 µM (inactive)"
  }
]

Inquiry: // returns reported GI50 for input O=c1c2c(nc3[nH]ccn13)CCC2
Reply text: > 10 µM (inactive)

Inquiry: // returns reported GI50 for input OC(Cc1ccc2ccccc2n1)(C(F)(F)Cl)C(F)(F)Cl
Reply text: > 10 µM (inactive)

Inquiry: // returns reported GI50 for input C=C1CCC(OC(C)=O)C2(C)C(OC(C)=O)CC3OC3(C)C2C(OC(C)=O)C2C(C)C(=O)OC2C1Cl (stereo unspecified)
Reply text: > 100 µM (inactive)

Inquiry: // returns reported GI50 for input CC1=C/C(=N\O)C(C(O)(C(F)(F)F)C(F)(F)F)C(C)(C)C1 (stereo unspecified)
Reply text: > 10 µM (inactive)

Inquiry: // returns reported GI50 for input CC(C)(C)C1CCC2c3c([nH]c4ccccc34)C3C(=O)N(c4cc(Br)cc(Br)c4)C(=O)C3C2C1 (stereo unspecified)
Reply text: 25.1 µM (inactive)

Inquiry: // returns reported GI50 for input O=C(O)c1cccc(S(=O)(=O)NN2C(=O)CSC2c2c(O)ccc3ccccc23)c1 (stereo unspecified)
Reply text: 27 µM (inactive)

* * *

System: SK-MEL-5
protocol: NCI tumour cell line growth inhibition, 48 h
Calls of active or inactive are those of the source. Cut-off read from the data, not from the text of the source: active = GI50 up to about 1.1 µM and inactive = higher.
A correct response names exactly one class from active, inactive

As a guide, the following entries are already answered.
[
  {
    "compound": "C[C@H](c1ccccc1)N1C(=O)[C@@H](O)[C@H]1[C@H](CO)OCc1ccccc1",
    "discreteLabel": "inactive"
  },
  {
    "compound": "COC(=O)c1cc(NC(=O)c2cc(NC(=O)Cc3c[nH]c4ccccc34)cn2C)cn1C",
    "discreteLabel": "inactive"
  },
  {
    "compound": "COC(=O)C1=C(C(=O)OC)C(C(=O)c2ccc(Br)cc2)N2N=C(c3ccc(Cl)cc3)C=CC12 (stereo not drawn)",
    "discreteLabel": "inactive"
  },
  {
    "compound": "CCOC(=O)Cc1nn2c(=O)cc(C)nc2s1",
    "discreteLabel": "inactive"
  },
  {
    "compound": "COc1cc([C@@H]2c3cc4c(cc3[C@@H](/N=C/c3ccc(C(=O)O[C@@H](C(=O)O[C@H]5C[C@@]6(O)[C@@H](OC(=O)c7ccccc7)[C@@H]7[C@]8(OC(C)=O)CO[C@@H]8C[C@H](O)[C@@]7(C)C(=O)[C@H](OC(C)=O)C(=C5C)C6(C)C)[C@@H](NC(=O)c5ccccc5)c5ccccc5)cc3)[C@H]3COC(=O)[C@H]23)OCO4)cc(OC)c1O",
    "discreteLabel": "active"
  },
  {
    "compound": "c1cncc(-c2ncc3cccnc3n2)c1",
    "discreteLabel": "inactive"
  },
  {
    "compound": "Cc1ccc(NC(=O)c2cc(S(=O)(=O)N3CCNNC3=O)c(S)cc2Cl)cc1",
    "discreteLabel": "inactive"
  },
  {
    "compound": "CC(N)Cc1ccc(C(=O)Cl)cc1 (stereo not drawn)",
    "discreteLabel": "inactive"
  },
  {
    "compound": "NNC(=O)c1ccc[n+](CCc2ccccc2)c1",
    "discreteLabel": "inactive"
  },
  {
    "compound": "COc1cc(/C=C(\\NC(=O)c2ccccc2)c2nc3cc([N+](=O)[O-])ccc3[nH]2)cc(OC)c1OC",
    "discreteLabel": "inactive"
  }
]

Inquiry: What did this assay record as the result for C1=C(N2CCOCC2)/C(=C2\SC(=N/c3ccccc3)/C(=N\c3ccccc3)N2c2ccccc2)CC1 ?
Reply text: inactive

Inquiry: What did this assay record as the result for COc1ccc(-c2cc(O)c3cc4c(cc3n2)OCO4)c(OC)c1OC ?
Reply text: inactive

Inquiry: What did this assay record as the result for C=C1CCc2ccccc2C1=O ?
Reply text: inactive

Inquiry: What did this assay record as the result for Nc1cc(S(=O)(=O)O)cc2ccc(S(=O)(=O)O)cc12 ?
Reply text: inactive

Inquiry: What did this assay record as the result for N#CC1(O)CCCCCCCCCCC1 ?
Reply text: inactive

Inquiry: What did this assay record as the result for O=C(NC(OCc1ccccc1)(C(F)(F)F)C(F)(F)F)OCc1ccccc1 ?
Reply text: inactive

Inquiry: What did this assay record as the result for COc1nc2ccc(COc3ccc(C(=O)NC(CCC(=O)O)C(=O)O)cc3)cc2nc1OC (stereo not drawn) ?
Reply text: inactive

Inquiry: What did this assay record as the result for CCOC(=O)NC ?
Reply text: inactive

All figures here come from ChEMBL document CHEMBL1201862.
